Target: ATM enzyme (human) (Homo sapiens, UniProt Q13315)
Sequence (Q13315 whole entry): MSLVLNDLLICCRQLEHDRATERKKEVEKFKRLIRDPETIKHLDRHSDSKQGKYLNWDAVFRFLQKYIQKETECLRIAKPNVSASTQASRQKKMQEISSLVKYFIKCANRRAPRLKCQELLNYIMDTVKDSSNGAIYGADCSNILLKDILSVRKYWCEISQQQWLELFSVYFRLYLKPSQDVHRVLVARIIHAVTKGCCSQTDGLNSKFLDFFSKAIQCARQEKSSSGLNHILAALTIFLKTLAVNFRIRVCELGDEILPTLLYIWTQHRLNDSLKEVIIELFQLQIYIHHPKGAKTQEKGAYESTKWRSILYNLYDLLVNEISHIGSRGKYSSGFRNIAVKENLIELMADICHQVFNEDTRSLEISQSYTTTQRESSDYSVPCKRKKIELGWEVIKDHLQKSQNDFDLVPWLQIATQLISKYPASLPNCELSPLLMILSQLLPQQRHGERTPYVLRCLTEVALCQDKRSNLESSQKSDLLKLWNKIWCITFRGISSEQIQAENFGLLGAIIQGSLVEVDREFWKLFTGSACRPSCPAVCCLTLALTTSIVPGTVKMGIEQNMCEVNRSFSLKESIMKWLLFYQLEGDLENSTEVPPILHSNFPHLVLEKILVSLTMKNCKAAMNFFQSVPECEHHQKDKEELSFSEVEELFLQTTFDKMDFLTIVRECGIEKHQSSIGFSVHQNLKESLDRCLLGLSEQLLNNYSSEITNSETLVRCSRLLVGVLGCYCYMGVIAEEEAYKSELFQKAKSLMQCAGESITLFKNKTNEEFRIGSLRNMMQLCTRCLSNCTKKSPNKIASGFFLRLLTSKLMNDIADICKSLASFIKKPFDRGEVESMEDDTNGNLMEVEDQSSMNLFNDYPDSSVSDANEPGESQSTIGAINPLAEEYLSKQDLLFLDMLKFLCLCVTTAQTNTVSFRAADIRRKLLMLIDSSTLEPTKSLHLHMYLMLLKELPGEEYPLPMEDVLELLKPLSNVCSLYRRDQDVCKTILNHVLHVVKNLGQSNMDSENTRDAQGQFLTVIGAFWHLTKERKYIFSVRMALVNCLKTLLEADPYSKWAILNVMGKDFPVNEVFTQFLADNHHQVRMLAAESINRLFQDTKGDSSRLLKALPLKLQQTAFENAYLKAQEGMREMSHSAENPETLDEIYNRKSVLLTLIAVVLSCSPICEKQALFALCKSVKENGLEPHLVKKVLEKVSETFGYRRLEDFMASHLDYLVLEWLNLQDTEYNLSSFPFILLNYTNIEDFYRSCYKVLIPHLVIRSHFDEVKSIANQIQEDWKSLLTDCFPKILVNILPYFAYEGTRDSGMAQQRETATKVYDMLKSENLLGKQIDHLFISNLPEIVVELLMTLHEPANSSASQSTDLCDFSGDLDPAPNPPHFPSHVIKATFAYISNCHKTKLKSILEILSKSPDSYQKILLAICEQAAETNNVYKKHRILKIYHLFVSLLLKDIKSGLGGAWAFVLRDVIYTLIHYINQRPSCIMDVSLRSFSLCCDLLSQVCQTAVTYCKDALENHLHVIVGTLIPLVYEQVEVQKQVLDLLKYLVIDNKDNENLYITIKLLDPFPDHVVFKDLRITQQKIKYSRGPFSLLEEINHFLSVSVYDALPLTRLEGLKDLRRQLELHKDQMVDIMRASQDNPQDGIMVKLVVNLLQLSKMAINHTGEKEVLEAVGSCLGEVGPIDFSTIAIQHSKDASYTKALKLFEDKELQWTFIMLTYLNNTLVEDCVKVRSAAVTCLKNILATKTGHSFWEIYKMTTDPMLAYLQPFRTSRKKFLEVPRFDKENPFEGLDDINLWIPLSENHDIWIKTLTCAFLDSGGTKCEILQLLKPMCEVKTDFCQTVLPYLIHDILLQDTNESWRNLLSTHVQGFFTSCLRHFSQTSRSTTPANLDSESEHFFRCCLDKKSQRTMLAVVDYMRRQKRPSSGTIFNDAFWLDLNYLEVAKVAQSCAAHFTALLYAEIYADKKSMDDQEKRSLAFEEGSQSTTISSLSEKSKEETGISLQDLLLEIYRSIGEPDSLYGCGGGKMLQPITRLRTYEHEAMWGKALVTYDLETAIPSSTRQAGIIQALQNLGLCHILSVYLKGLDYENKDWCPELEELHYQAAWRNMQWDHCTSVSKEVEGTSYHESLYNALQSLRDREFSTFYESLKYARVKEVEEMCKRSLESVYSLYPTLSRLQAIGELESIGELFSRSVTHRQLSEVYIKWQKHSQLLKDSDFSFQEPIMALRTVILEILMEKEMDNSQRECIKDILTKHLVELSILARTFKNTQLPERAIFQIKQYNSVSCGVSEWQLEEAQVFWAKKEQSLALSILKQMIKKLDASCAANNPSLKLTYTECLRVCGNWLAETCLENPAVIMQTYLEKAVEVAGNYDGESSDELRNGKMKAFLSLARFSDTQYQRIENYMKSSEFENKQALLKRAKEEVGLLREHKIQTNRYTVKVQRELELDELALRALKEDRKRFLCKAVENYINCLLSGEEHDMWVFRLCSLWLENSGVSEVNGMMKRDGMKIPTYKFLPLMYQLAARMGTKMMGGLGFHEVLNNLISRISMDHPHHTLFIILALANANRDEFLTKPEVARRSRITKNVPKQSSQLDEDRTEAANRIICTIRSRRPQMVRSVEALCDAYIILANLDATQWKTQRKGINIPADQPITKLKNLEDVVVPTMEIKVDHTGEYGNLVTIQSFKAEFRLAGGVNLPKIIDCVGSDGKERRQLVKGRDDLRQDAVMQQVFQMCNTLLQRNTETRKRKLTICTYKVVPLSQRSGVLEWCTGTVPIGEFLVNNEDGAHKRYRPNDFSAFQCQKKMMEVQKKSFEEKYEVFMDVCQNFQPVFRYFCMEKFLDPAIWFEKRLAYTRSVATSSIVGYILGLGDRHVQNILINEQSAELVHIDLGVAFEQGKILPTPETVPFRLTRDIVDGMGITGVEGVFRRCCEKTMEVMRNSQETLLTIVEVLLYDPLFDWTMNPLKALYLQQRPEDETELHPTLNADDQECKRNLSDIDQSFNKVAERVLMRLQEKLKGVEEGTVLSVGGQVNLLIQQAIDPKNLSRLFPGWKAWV
Assay: ATM kinase assay (HTRF, phosphorylation of GST-cMyc-p53)
Assay type: biochemical
Conditions: 0.5 h; detected concentration 1 μm
Assay readout: inhibition at 1 µM (%)
One number for each entry, in %.

CN(C)CCCOc1ccc(-c2ccc3nc4cccc(N5CCN(C)CC5)c4n3c2)cc1C(F)(F)F: 97
CN(C)C1CCN(c2ccc(-c3ccc4nc5cccc(N6CCC(N(C)C)CC6)c5n4c3)cc2)CC1: 81
CN(C)C1CCN(c2ccc(-c3ccc4nc5cccc(N6CCOCC6)c5n4c3)cn2)CC1: 88
CN1CCN(c2ccc(-c3cccc4nc5ccc(N6CCOCC6)cc5n34)cn2)CC1: 53
CN(C)CCCOc1ccc(-c2ccc3nc4cccc(N5CCCCC5)c4n3c2)cn1: 61

Provide the reported inhibition at 1 µM of each entry below, same order.
1. C[C@@H]1CN(c2ccc(-c3cccc4nc5ccc(N6CCOCC6)cc5n34)cn2)C[C@H](C)N1C
2. CN(C)C1CCN(c2ccc(-c3ccc4nc5cccc(C6=CCOCC6)c5n4c3)cc2)CC1
3. CN(C)CCCOc1ccc(-c2ccc3nc4cccc(OC5CCN(C)CC5)c4n3c2)cn1

OUTPUT:
1: 37; 2: 91; 3: 88
